test system: SNB-19 CNS; assay: NCI tumour cell line growth inhibition, 48 h
outcome_measure: GI50

c1ccc2c3c([nH]c2c1)C(c1ccc(C2NCCc4c2[nH]c2ccccc42)cc1)NCC3 (stereo not drawn) | 1.73 µM
CCOC(=O)c1cnc2c(C)cccc2c1Nc1ccc(C(C)=O)cc1 | 40.2 µM

input: Report GI50 for "Cn1c(-c2c(N)n(CCCN3CCOCC3)c3nc(C#N)c(C#N)nc23)nc2ccccc21"
output: 23.8 µM

input: Report GI50 for "COc1ccc(/C(C#N)=C2C=C/C(=N/O)c3ccccc3\2)cc1"
output: 2.8 µM

input: Report GI50 for "CCCCCCC[CH2][Sn]1([CH2]CCCCCCC)[O]C(=O)c2cccnc2[O]1"
output: > 100 µM

input: Report GI50 for "Oc1[nH]c2ccccc2c1/C=c1/cc2c(c(-c3ccc(F)cc3)n1)=Nc1ccccc1-2"
output: 1.43 µM

input: Report GI50 for "COc1cc2c3c(n(C)c(=O)c2cc1OC)-c1ccc(C#N)cc1C3=O"
output: > 100 µM

input: Report GI50 for "c1cc2c(cn1)Nc1ccncc1S2"
output: 39 µM

* * *

system: RXF 393 renal; test: NCI tumour cell line growth inhibition, 48 h
outcome_measure: TGI

input: Report TGI for "O=c1cnn(CCOCP(=O)(O)O)c(=O)[nH]1"
output: > 100 µM

input: Report TGI for "O=P(O)(O)C1(P(=O)(O)O)CC1"
output: > 100 µM

input: Report TGI for CCOC(=O)C1(C)CCCCC(=O)N1 (stereo not drawn)
output: > 100 µM

input: Report TGI for "CN(C)c1cccc(NC2=NCCO2)c1"
output: > 100 µM

input: Report TGI for CC1(c2ccc(Cl)cc2)C2C(=O)NC(=O)C1C(=O)NC2=O (stereo not drawn)
output: > 100 µM

* * *

Attribute: TGI
test system: MCF7 breast; assay: NCI tumour cell line growth inhibition, 48 h

COc1ccc(-n2sc3ncccc3c2=O)cc1 | 49.1 µM

input: Report TGI for "CN(C)C(=S)SCC(=O)Nc1ccccc1"
output: > 100 µM

input: Report TGI for COc1ccc(/C=C/C2=NN(c3cccc(S(=O)(=O)O)c3)C3(C2)SCC(=O)N3c2nc3ccccc3s2)cc1 (centres undefined)
output: > 100 µM

input: Report TGI for "O=C(CC(Cl)=C(Cl)Cl)c1cccc(Cl)c1Cl"
output: > 100 µM

* * *

test system: MOLT-4 leukemia; experiment: NCI tumour cell line growth inhibition, 48 h
outcome_measure: TGI

// solved cases for TGI follow
CCn1c(-c2nonc2N)nc2cncc(C(=O)N3CC[C@H](N)C3)c21 | > 25 µM
CCc1nc(N)nc(N)c1-c1ccc(N2CCNCC2)cc1 | > 91.8 µM
CC1C(c2ccc(Cl)cc2)c2cc3c(cc2OC1N1CCOCC1)OCO3 (configuration not stated) | > 100 µM

input: Report TGI for "CC1(C)C(=O)C(C)(C)C1=S"
output: > 100 µM

input: Report TGI for "O=C1NC(=NCCCc2ccccc2)S/C1=C\c1ccc2ncccc2c1"
output: 18.9 µM

input: Report TGI for "CN1CSC(=S)N(Cc2ccccc2)C1"
output: > 100 µM

input: Report TGI for "ClC(Cl)[Si]12OCCN(CCO1)CCO2"
output: > 100 µM
